target: κ opioid receptor (Homo sapiens, UniProt P41145); construct: expressed in transfected cells; host or cells: CHO cells (membranes); assay: Competition binding assay on membranes of CHO cells expressing κ opioid receptor, [3H]-labeled ligand; settings: 0.5 h; Table 1-1; 10 μM concentration of compound; read-out: κOR Binding rate (%)
Structures can show the parent of a compound that is named as a salt.
Provide the reported inhibition at 10 µM of each item.
Answers are plain numbers, in %.

>  <molecule>
COc1cccc(C2(O)CCC(N(C)S(=O)(=O)c3cccs3)CC2CN(C)C)c1 (stereo not drawn) [hydrochloride]

>  <inhibition at 10 µM, %>
51.4

$$$$
>  <molecule>
COc1cccc(C2(OC(=O)c3ccccc3)CCC(NS(=O)(=O)c3ccccc3)CC2CN(C)C)c1 (stereo not drawn)

>  <inhibition at 10 µM, %>
51.5

$$$$
>  <molecule>
COc1cccc(C2(O)CCC(S(=O)(=O)Cc3ccccc3)CC2CN(C)C)c1 (stereo not drawn) [hydrochloride]

>  <inhibition at 10 µM, %>
47.7

$$$$

Consider the following items and state reported inhibition at 10 µM for each.
1. COc1cccc(C2(O)CCC(N(C)S(=O)(=O)c3cccc(Cl)c3)CC2CN(C)C)c1 (stereo not drawn) [hydrochloride]
2. COc1cccc(C2(O)CCC(N(Cc3ccccc3)S(=O)(=O)c3ccccc3)CC2CN(C)C)c1 (stereo not drawn)
3. COc1cccc(C2(OC(=O)c3ccccc3)CCC(N(C)S(=O)(=O)Cc3cccc(Cl)c3)CC2CN(C)C)c1 (stereo not drawn)

Result:
1. 66.6
2. 84.7
3. 25.5

These data points were gathered from patent US12624004B2.
